MEASURED_TARGET: thymidine phosphorylase (TP) (Escherichia coli)
Construct: purchased Sigma Aldrich, USA; host or cells: E. coli
Sequence (P07650 whole entry): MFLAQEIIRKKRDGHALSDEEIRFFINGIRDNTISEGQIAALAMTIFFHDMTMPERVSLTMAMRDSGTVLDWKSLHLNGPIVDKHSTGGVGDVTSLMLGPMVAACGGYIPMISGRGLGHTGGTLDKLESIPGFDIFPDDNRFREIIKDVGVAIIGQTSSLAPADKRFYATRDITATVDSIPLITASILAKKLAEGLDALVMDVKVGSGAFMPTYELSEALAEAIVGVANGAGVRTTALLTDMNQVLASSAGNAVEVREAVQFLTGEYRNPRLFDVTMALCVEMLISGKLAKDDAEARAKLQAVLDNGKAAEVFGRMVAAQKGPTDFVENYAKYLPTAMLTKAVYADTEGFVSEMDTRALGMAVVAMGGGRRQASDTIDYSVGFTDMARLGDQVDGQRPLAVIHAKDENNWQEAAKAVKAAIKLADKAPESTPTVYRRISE
ASSAY_TEXT: Thymidine phosphorylase inhibition assay (spectrophotometric, 290 nm)
Assay type: biochemical, E. coli
CONDITION: read-out: Percent Inhibition of thymidine phosphorylase, 10 μL of test compound (0.5 mM in dimethylsulfoxide) per well; <50% regarded inactive
inhibition values by entry

[
  {
    "CHEMICAL_SMILES": "C/C(=N\\NC(=O)c1ccc(O)cc1)c1ccccc1O",
    "MEASURED_TARGET": "thymidine phosphorylase (TP) (Escherichia coli)",
    "UOM": "%",
    "inhibition": 25
  },
  {
    "CHEMICAL_SMILES": "Cc1ccccc1/C=N/NC(=O)c1ccc(O)cc1",
    "MEASURED_TARGET": "thymidine phosphorylase (TP) (Escherichia coli)",
    "UOM": "%",
    "inhibition": 99
  },
  {
    "CHEMICAL_SMILES": "O=C(N/N=C/c1cc(O)c(O)cc1O)c1ccc(O)cc1",
    "MEASURED_TARGET": "thymidine phosphorylase (TP) (Escherichia coli)",
    "UOM": "%",
    "inhibition": 99
  },
  {
    "CHEMICAL_SMILES": "O=C(NN=Cc1ccc(Cl)cc1)c1ccc(O)cc1",
    "MEASURED_TARGET": "thymidine phosphorylase (TP) (Escherichia coli)",
    "UOM": "%",
    "inhibition": 99
  },
  {
    "CHEMICAL_SMILES": "O=C(N/N=C/c1ccc(Br)cc1)c1ccc(O)cc1",
    "MEASURED_TARGET": "thymidine phosphorylase (TP) (Escherichia coli)",
    "UOM": "%",
    "inhibition": 96.6
  },
  {
    "CHEMICAL_SMILES": "O=C(NN=Cc1cc(Br)cc(Br)c1O)c1ccc(O)cc1",
    "MEASURED_TARGET": "thymidine phosphorylase (TP) (Escherichia coli)",
    "UOM": "%",
    "inhibition": 99.9
  },
  {
    "CHEMICAL_SMILES": "O=C(N/N=C/c1ccc(O)cc1)c1ccc(O)cc1",
    "MEASURED_TARGET": "thymidine phosphorylase (TP) (Escherichia coli)",
    "UOM": "%",
    "inhibition": 99
  },
  {
    "CHEMICAL_SMILES": "O=C(N/N=C/c1cccc(Cl)c1)c1ccc(O)cc1",
    "MEASURED_TARGET": "thymidine phosphorylase (TP) (Escherichia coli)",
    "UOM": "%",
    "inhibition": 99
  },
  {
    "CHEMICAL_SMILES": "COc1ccc(O)c(/C=N/NC(=O)c2ccc(O)cc2)c1",
    "MEASURED_TARGET": "thymidine phosphorylase (TP) (Escherichia coli)",
    "UOM": "%",
    "inhibition": 99.9
  },
  {
    "CHEMICAL_SMILES": "O=C(N/N=C/c1ccc(O)c(O)c1)c1ccc(O)cc1",
    "MEASURED_TARGET": "thymidine phosphorylase (TP) (Escherichia coli)",
    "UOM": "%",
    "inhibition": 99.3
  }
]

----------
Tested on: mouse fibroblast (3T3) cells
ASSAY_TEXT: MTT anti-proliferative (cytotoxicity) assay, 3T3 cells
Assay type: cell-based
CONDITION: 48 h incubation, mouse fibroblast normal cell line, read-out: IC50 ± Standard Deviation, 3T3 Cell Line
Experimental: Anti-proliferative activity of active compounds was evaluated by using the standard MTT (3-[4,5-dimethylthiazole-2-yl]-2,5-diphenyl-tetrazolium bromide) colorimetric assay in 96-well plate. It is a colorimetric assay that measures the reduction of MTT by mitochondrial enzyme i.e. succinate dehydrogenase. The MTT enters into the mitochondria of cell, where it is reduced to an insoluble formazan salt. […]

[
  {
    "MOLECULE": "C[C@@H]1C[C@@H]([C@H](O)CC2CC(=O)NC(=O)C2)C(=O)[C@@H](C)C1 [Cyclohexamide, cyclohexamide, reference compound]",
    "UOM": "nM",
    "IC50": 260
  }
]
